- TGT: T1, FZD3 CRD (Homo sapiens, UniProt Q9NPG1)
- T1 construct: CRD of FZD1, FZD2, FZD3, FZD4, FZD5, FZD6, FZD7, FZD8, FZD9 or FZD10; GPI anchor signal (C); expressed in transfected cells; host or cells: CHO cells, lentiviral pLenti-puro
- T1 sequence (Q9NPG1 23-136 limits assumed): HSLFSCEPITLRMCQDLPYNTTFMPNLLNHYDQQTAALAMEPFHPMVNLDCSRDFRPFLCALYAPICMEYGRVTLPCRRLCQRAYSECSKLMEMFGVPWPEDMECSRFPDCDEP
- PROCEDURE_SUMMARY: Immunofluorescence of anti-FZD5 Fab binding to CHO cells overexpressing Frizzled CRD
- Set-up: key: −: no binding; +: very weak binder; ++: weak binder; +++: good binder; ++++: very good binder
ENDPOINT: Immunofluorescence binding, Frizzled CRD overexpressed on CHO cells: FZD3

MOLECULE	RESULT
Fab-2909: anti-FZD5 Fab with antibody variable region Fv-2909; CDR SEQ ID NOs: 35, 36, 48, 87, 124, 161 (antibody, V domains shown) VH: EVQLVESGGGLVQPGGSLRLSCAASGFNISSSYMHWVRQAPGKGLEWVASISSSSGYTSYADSVKGRFTISADTSKNTAYLQMNSLRAEDTAVYYCARTVRGSKKPYFSGWAMDYWGQGTLVTVSS VL: DIQMTQSPSSLSASVGDRVTITCRASQSVSSAVAWYQQKPGKAPKLLIYSASSLYSGVPSRFSGSRSGTDFTLTISSLQPEDFATYYCQQSWSYHYLITFGQGTKVEIK	−
Fab-2925: anti-FZD5 Fab with antibody variable region Fv-2925; CDR SEQ ID NOs: 35, 36, 64, 102, 140, 172 (antibody, V domains shown) VH: EVQLVESGGGLVQPGGSLRLSCAASGFNLSYSSMHWVRQAPGKGLEWVASIYPSYGSTYYADSVKGRFTISADTSKNTAYLQMNSLRAEDTAVYYCARYGYFGLDYWGQGTLVTVSS VL: DIQMTQSPSSLSASVGDRVTITCRASQSVSSAVAWYQQKPGKAPKLLIYSASSLYSGVPSRFSGSRSGTDFTLTISSLQPEDFATYYCQQAWVYASLFTFGQGTKVEIK	−
